Molecular target: Constitutive 20S proteasome chymotrypsin-like (CT-L) activity (Homo sapiens (Human), UniProt P20618+P28074)
Experiment: Constitutive 20S proteasome CT-L activity inhibition, fluorogenic substrate succinyl-Leu-Leu-Val-Tyr-AMC
Format: biochemical
Settings: purified human 20S proteasome, room temperature, one hour; read-out: Proteasome inhibition IC50 (nM) Constitutive 20S proteasome CT-L
assayReadout: IC50 (nM)

- molecule: "C[C@]1(C(=O)[C@H](Cc2ccccc2)NC(=O)[C@H](Cc2cscn2)NC(=O)[C@H](CCc2ccccc2)NC(=O)c2cc(CN3CCOCC3)on2)CO1"
  IC50 / nM: 12.2

(A) Cc1ncc(C(=O)N[C@@H](CCc2ccccc2)C(=O)N[C@@H](Cc2ccncc2)C(=O)N[C@@H](CC(C)C)C(=O)[C@@]2(C)CO2)s1
(B) CC(C)C[C@H](NC(=O)[C@H](Cc1ccncc1)NC(=O)[C@H](CCc1ccccc1)NC(=O)Cc1ccc(CN2CCOCC2)cc1)C(=O)[C@@]1(C)CO1
(Q) Form: Entry with minimum IC50 (choose one): A / B Your answer should be the label attached to the chosen record.
(A) B

----------
Measured IC50 values are reported for all entries that follow.
Target: Constitutive 20S proteasome chymotrypsin-like (CT-L) activity (Homo sapiens (Human), UniProt P20618+P28074)
Test: Constitutive 20S proteasome CT-L activity inhibition, fluorogenic substrate succinyl-Leu-Leu-Val-Tyr-AMC
Format: biochemical
Settings: form of 20S proteasome not stated; 'below about'

Some compounds with known IC50 results, for comparison:
- compound: "CC(=O)N[C@@H](CCc1ccccc1)C(=O)N[C@@H](Cc1ccncc1)C(=O)N[C@@H](CC(C)C)C(=O)[C@@]1(C)CO1 [CX13-130]"
  IC50: "< 100 nM"
- compound: "CC(C)C[C@H](NC(=O)[C@H](Cc1ccccc1)NC(=O)[C@H](CCc1ccccc1)NC(=O)c1cc(CN2CCOCC2)on1)C(=O)[C@@]1(C)CO1 [CX13-600]"
  IC50: "< 5 nM"
- compound: "Cc1cc(C(=O)N[C@@H](CCc2ccccc2)C(=O)N[C@@H](Cc2ccncc2)C(=O)N[C@@H](CC(C)C)C(=O)[C@@]2(C)CO2)no1 [CX13-135]"
  IC50: "< 10 nM"

Now turn to the next compound.
(Q) Which IC50 reading was recorded for the compound COC[C@H](NC(=O)[C@H](CCc1ccccc1)NC(=O)c1cc(CN2CCOCC2)on1)C(=O)N[C@@H](CC(C)C)C(=O)[C@@]1(C)CO1 [CX13-601] ?
(A) < 50 nM

----------
Test: Aqueous solubility of the compounds
Type: physicochemical
Details: 50 mM citrate buffer, pH 4, aqueous buffer, thermodynamic from solid, 50 mM citrate pH4.0, 25° C.
assayReadout: solubility at 24 h (µg/mL)

- molecule: "CC(=O)N[C@@H](CCc1ccccc1)C(=O)N[C@@H](Cc1ccncc1)C(=O)N[C@@H](CC(C)C)C(=O)[C@@]1(C)CO1"
  assayReadout: "solubility at 24 h"
  measurement: 1360
- molecule: "CC(C)C[C@H](NC(=O)[C@H](CCc1ccccc1)NC(=O)c1cc(CN2CCOCC2)on1)C(=O)N[C@@H](Cc1ccncc1)C(=O)[C@@]1(C)CO1"
  assayReadout: "solubility at 24 h"
  measurement: 1440

(A) COC[C@H](NC(=O)[C@H](CCc1ccccc1)NC(=O)c1cc(CN2CCOCC2)on1)C(=O)N[C@@H](CC(C)C)C(=O)[C@@]1(C)CO1
(B) CC(C)C[C@H](NC(=O)[C@H](Cc1ccccc1)NC(=O)[C@H](CCc1ccccc1)NC(=O)c1cc(CN2CCOCC2)on1)C(=O)[C@@]1(C)CO1
(C) CC(C)C[C@H](NC(=O)[C@H](CCc1ccccc1)NC(=O)CN1CCOCC1)C(=O)N[C@@H](Cc1ccccc1)C(=O)[C@@]1(C)CO1
(D) CC(C)C[C@H](NC(=O)[C@H](CCc1ccccc1)NC(=O)CN1CCOCC1)C(=O)N[C@@H](Cc1ccncc1)C(=O)[C@@]1(C)CO1
(Q) // sort entries: solubility at 24 h, high to low Form field (ranking): labels in requested order.
(A) D, A, C, B
(D: 3490 µg/mL, A: 480 µg/mL, C: 83 µg/mL, B: 20 µg/mL)

----------
Biological target: 20S Immunoproteasome chymotrypsin-like (CT-L) activity (Homo sapiens (Human), UniProt P20618+P28062)
Experiment: 20S immunoproteasome CT-L activity inhibition, fluorogenic substrate succinyl-Leu-Leu-Val-Tyr-AMC
Format: biochemical
Details: purified human 20S proteasome, room temperature, one hour
assayReadout: IC50 (nM)

Some solved cases for reference:
- molecule: "Cc1cc(C(=O)N[C@@H](CCc2ccccc2)C(=O)N[C@@H](Cc2ccncc2)C(=O)N[C@@H](CC(C)C)C(=O)[C@@]2(C)CO2)no1"
  IC50 [nM]: 28.1
- molecule: "COC[C@H](NC(=O)[C@H](CCc1ccccc1)NC(=O)Cc1ccc(CN2CCOCC2)cc1)C(=O)N[C@@H](Cc1ccccc1)C(=O)[C@@]1(C)CO1"
  IC50 [nM]: 4.26
- molecule: "CC(C)C[C@H](NC(=O)[C@H](Cc1ccccc1)NC(=O)[C@H](CCc1ccccc1)NC(=O)c1cc(CN2CCOCC2)on1)C(=O)[C@@]1(C)CO1"
  IC50 [nM]: 7.41
- molecule: "C[C@]1(C(=O)[C@H](Cc2ccccc2)NC(=O)[C@H](Cc2cscn2)NC(=O)[C@H](CCc2ccccc2)NC(=O)c2cc(CN3CCOCC3)on2)CO1"
  IC50 [nM]: 6.81

(I) CC(C)C[C@H](NC(=O)[C@H](CCc1ccccc1)NC(=O)CN1CCOCC1)C(=O)N[C@@H](Cc1ccccc1)C(=O)[C@@]1(C)CO1
(II) COC[C@H](NC(=O)[C@H](CCc1ccccc1)NC(=O)c1cc(CN2CCOCC2)on1)C(=O)N[C@@H](Cc1ccccc1)C(=O)[C@@]1(C)CO1
(Q) I'm curious, which of these has a smaller IC50 number: I or II ? Refer to your chosen item by its label in the answer.
(A) I

----------
Target: 20S Immunoproteasome trypsin-like (T-L) activity (Homo sapiens (Human), UniProt P40306+P49720)
Assay: 20S immunoproteasome T-L activity inhibition, fluorogenic substrate Boc-Leu-Arg-Arg-AMC
Assay type: biochemical
Conditions: purified human 20S proteasome, room temperature, one hour
assayReadout: IC50

These solved cases illustrate the format of a correct answer.
- molecule: "COC[C@H](NC(=O)c1cc(C)on1)C(=O)N[C@@H](Cc1ccncc1)C(=O)N[C@@H](CC(C)C)C(=O)[C@@]1(C)CO1"
  measurement: "> 20000 nM"
- molecule: "CC(=O)N[C@@H](CCc1ccccc1)C(=O)N[C@@H](Cc1ccncc1)C(=O)N[C@@H](CC(C)C)C(=O)[C@@]1(C)CO1"
  measurement: "1650 nM"
- molecule: "CC(C)C[C@H](NC(=O)[C@H](CCc1ccccc1)NC(=O)c1cc(CN2CCOCC2)on1)C(=O)N[C@@H](Cc1ccccc1)C(=O)[C@@]1(C)CO1"
  measurement: "> 20000 nM"
- molecule: "COC[C@H](NC(=O)[C@H](CCc1ccccc1)NC(=O)c1cc(CN2CCOCC2)on1)C(=O)N[C@@H](Cc1ccccc1)C(=O)[C@@]1(C)CO1"
  measurement: "> 20000 nM"

Moving on to another molecule below.
(Q) Entry under review: `CC(C)C[C@H](NC(=O)[C@H](CCc1ccccc1)NC(=O)c1cc(CN2CCOCC2)on1)C(=O)N[C@@H](Cc1ccncc1)C(=O)[C@@]1(C)CO1` . Reported IC50?
(A) > 20000 nM

----------
Test: Aqueous solubility of the compounds
Format: physicochemical
Settings: 50 mM citrate buffer, pH 4, aqueous buffer, thermodynamic from solid, 50 mM citrate pH4.0, 25° C.
assayReadout: solubility at 24 h (µg/mL)

- molecule: "COC[C@H](NC(=O)[C@H](CCc1ccccc1)NC(=O)Cc1ccc(CN2CCOCC2)cc1)C(=O)N[C@@H](Cc1ccccc1)C(=O)[C@@]1(C)CO1"
  assayReadout: "solubility at 24 h"
  readingUnit: "µg/mL"
  measurement: 1430

(1) Cc1cc(C(=O)N[C@@H](CCc2ccccc2)C(=O)N[C@@H](Cc2ccncc2)C(=O)N[C@@H](CC(C)C)C(=O)[C@@]2(C)CO2)no1
(2) CC(C)C[C@H](NC(=O)[C@H](CCc1ccccc1)NC(=O)c1cc(CN2CCOCC2)on1)C(=O)N[C@@H](Cc1ccccc1)C(=O)[C@@]1(C)CO1
(Q) Hey, which is lower on measured solubility at 24 h, 1 or 2 ? Please respond with the label that marks your chosen entry.
(A) 2
(2: 21 µg/mL, 1: 1160 µg/mL)

----------
Measured IC50 of individual entries
Molecular target: Constitutive 20S proteasome chymotrypsin-like (CT-L) activity (Homo sapiens (Human), UniProt P20618+P28074)
Assay: Constitutive 20S proteasome CT-L activity inhibition, fluorogenic substrate succinyl-Leu-Leu-Val-Tyr-AMC
Format: biochemical
Conditions: form of 20S proteasome not stated; 'below about'

(Q) Record request: IC50 value, item `CC(C)C[C@H](NC(=O)[C@H](CCc1ccccc1)NC(=O)c1cc(CN2CCOCC2)on1)C(=O)N[C@@H](Cc1ccncc1)C(=O)[C@@]1(C)CO1`
(A) < 50 nM
